experiment: SPR (Biacore) Protein A mAb capture, Compound A injected; conditions: 37° C., binding to Compound A, apparent affinity, for rank ordering only, read-out: KD
result-type: pKd
Friendly reminder that pKd comes from taking -log10 of the concentration in mol/L.

# pKd of 26D5-295-G07-mAb: human IgG1f/kappa mAb; VH SEQ ID NO: 69, VL SEQ ID NO: 88 (antibody, V domains shown) VH: EVQLVESGGGLIQPGGSLRLSCAASGFTVSSNYMSWVRQAPGKGLEWVSFIYPGGRTYYADSVKGRFTISRDNSKNTLYLQMNSLRAEDTAVYYCARGGFGGGDYWGQGTLVTVSS VL: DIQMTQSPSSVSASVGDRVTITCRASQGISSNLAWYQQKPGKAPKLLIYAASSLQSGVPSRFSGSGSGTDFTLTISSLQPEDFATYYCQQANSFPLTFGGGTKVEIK = 9.17
